Just for reference, ChEMBL document CHEMBL1147233 is where these values come from.

Molecular target: Human immunodeficiency virus type 1 integrase (Human immunodeficiency virus 1)
Sequence (Q7ZJM1 whole entry): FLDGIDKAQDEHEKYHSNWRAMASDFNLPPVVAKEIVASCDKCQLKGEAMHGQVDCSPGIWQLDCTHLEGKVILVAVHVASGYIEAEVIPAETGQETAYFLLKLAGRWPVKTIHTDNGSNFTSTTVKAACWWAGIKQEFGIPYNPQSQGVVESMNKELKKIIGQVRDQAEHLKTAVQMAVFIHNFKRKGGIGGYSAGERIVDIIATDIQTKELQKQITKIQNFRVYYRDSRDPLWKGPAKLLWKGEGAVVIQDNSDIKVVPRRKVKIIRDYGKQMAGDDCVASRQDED
Experiment: Inhibition of recombinant HIV1 integrase using preprocessed donor DNA treated after washing excess enzyme by strand transfer assay
measurement.kind: pIC50
Worth noting: pIC50 values are minus log10 of concentrations stated in mol/L.

# input Item C=C(CC[C@@H](C)[C@H]1CC(=O)C2=C3CC[C@H]4C(C)(C)[C@@H](O)[C@H](O)C[C@]4(C)C3=C[C@H](OC(C)=O)[C@@]21C)C(C)C has what recorded pIC50?
# output 4.40

# input Moving on to C=C(CC[C@@H](C)[C@H]1CC[C@H]2C3=C([C@@H](O)[C@H](OC(C)=O)[C@]12C)[C@@]1(C)C[C@@H](O)[C@H](OS(=O)(=O)O)C(C)(C)[C@@H]1CC3)C(C)C
# output 4.82
